Assay: self-splicing fitness, log relative to wild type (ln ratio); higher = more splicing; Tetrahymena group I intron in knt gene, E. coli kanamycin selection, DiMSum; sequences stand for … in CUCUCU…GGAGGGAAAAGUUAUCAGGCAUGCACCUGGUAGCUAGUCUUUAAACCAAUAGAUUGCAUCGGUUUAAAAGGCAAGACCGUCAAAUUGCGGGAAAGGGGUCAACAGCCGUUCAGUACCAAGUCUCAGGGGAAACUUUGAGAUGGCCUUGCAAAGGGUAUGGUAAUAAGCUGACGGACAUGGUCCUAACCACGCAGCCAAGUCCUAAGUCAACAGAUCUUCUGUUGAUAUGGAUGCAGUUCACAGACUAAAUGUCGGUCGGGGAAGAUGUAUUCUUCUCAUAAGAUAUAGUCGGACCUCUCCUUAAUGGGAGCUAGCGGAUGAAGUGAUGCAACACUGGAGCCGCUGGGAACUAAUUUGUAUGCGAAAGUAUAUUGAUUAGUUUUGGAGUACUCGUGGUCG;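 further: selection with 25 µg/mL kanamycin versus none on LB agar overnight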
Details: 37 °C
Decision: self-splicing fitness (ln) compared against -1; not below it gives criterion met, below it gives criterion not met.

Examples from the recorded data:
>  <Sequence text>
ACUAAGCAAUAUUACGUGGG

>  <Cat>
criterion not met

$$$$
>  <Sequence text>
UGUGAGCAAUAUUACGAAGC

>  <Cat>
criterion not met

$$$$
>  <Sequence text>
GGGCAGCAAUAUUACGGUAU

>  <Cat>
criterion met

$$$$
>  <Sequence text>
CAUCAGCAAUAUUACGGUUA

>  <Cat>
criterion met

$$$$
>  <Sequence text>
CCAAAGCAAUAUUACGUAUC

>  <Cat>
criterion not met

$$$$
>  <Sequence text>
GCACAGCAAUAUUACGAUUU

>  <Cat>
criterion met

$$$$

## Task Reported self-splicing fitness (ln) at or above -1? `GACCAGCAAUAUUACGUUAA`
## Result criterion met

## Task Reported self-splicing fitness (ln) at or above -1? `CAAAAGCAAUAUUACGACAA`
## Result criterion not met

## Task Reported self-splicing fitness (ln) at or above -1? `AGCUAGCAAUAUUACGCUGG`
## Result criterion not met

## Task Reported self-splicing fitness (ln) at or above -1? `AUUGAGCAAUAUUACGUGAU`
## Result criterion not met

## Task Reported self-splicing fitness (ln) at or above -1? `GCAAAGCAAUAUUACGCCCA`
## Result criterion met

## Task Reported self-splicing fitness (ln) at or above -1? `UUGAAGCAAUAUUACGGCGG`
## Result criterion met

## Task Reported self-splicing fitness (ln) at or above -1? `AAUUAGCAAUAUUACGUCAC`
## Result criterion not met

## Task Reported self-splicing fitness (ln) at or above -1? `ACAGAGCAAUAUUACGGCUG`
## Result criterion met

## Task Reported self-splicing fitness (ln) at or above -1? `GCUUAGCAAUAUUACGCUAA`
## Result criterion not met

## Task Reported self-splicing fitness (ln) at or above -1? `UCGCAGCAAUAUUACGCUAA`
## Result criterion not met

## Task Reported self-splicing fitness (ln) at or above -1? `UUGAAGCAAUAUUACGUCUC`
## Result criterion not met

## Task Reported self-splicing fitness (ln) at or above -1? `CGGUAGCAAUAUUACGUUCG`
## Result criterion not met

## Task Reported self-splicing fitness (ln) at or above -1? `ACUUAGCAAUAUUACGAUGG`
## Result criterion not met

## Task Reported self-splicing fitness (ln) at or above -1? `GUGAAGCAAUAUUACGUACA`
## Result criterion met

## Task Reported self-splicing fitness (ln) at or above -1? `CGCAAGCAAUAUUACGCUUA`
## Result criterion not met

## Task Reported self-splicing fitness (ln) at or above -1? `GUGUAGCAAUAUUACGGAUG`
## Result criterion met
